The values you see were collected from patent US11413283B2.

test: Toxicokinetics of patidegib and metabolite IPI-230 in plasma after twice daily dermal application for 13 weeks; type: in vivo, Gottingen Minipig; conditions: male, Gottingen, minipig, plasma, topical or ocular, 40 mg/kg/day, Gottingen Minipig plasma, Day 90, Group 3, 40 mg/kg/day dermal twice daily, sex M

COMPOUND	Cmax / ng/mL
CC1=C2C[C@H]3[C@@H](CC[C@@H]4C[C@H](NS(C)(=O)=O)CC[C@@]43C)[C@@H]2CC[C@@]2(C1)O[C@@H]1C[C@H](C)CN[C@H]1[C@H]2C [patidegib]	8.68

---

assay: Toxicokinetics of patidegib and metabolite IPI-230 in plasma after twice daily dermal application for 13 weeks; assay type: in vivo, Gottingen Minipig; conditions: both sexes, Gottingen, minipig, plasma, topical or ocular, 40 mg/kg/day, Gottingen Minipig plasma, Day 90, Group 3, 40 mg/kg/day dermal twice daily, sexes combined MF
MEASURE NAME: Cmax (ng/mL)

>>> df
                         chemical_structure  unit_descriptor  reported
0  CC1=C2C[C@H]3[C@@H](CC[C@@H]4C[C@H](NS(C)(=O)=O)CC[C@@]43C)[C@@H]2CC[C@@]2(C1)O[C@@H]1C[C@H](C)CN[C@H]1[C@H]2C            ng/mL      21.9

---

assay: Toxicokinetics of patidegib and metabolite IPI-230 in plasma after twice daily dermal application for 13 weeks; assay type: in vivo, Gottingen Minipig; details: both sexes, Gottingen, minipig, plasma, topical or ocular, 80 mg/kg/day, Gottingen Minipig plasma, Day 1, Group 4, 80 mg/kg/day dermal twice daily, sexes combined MF

COMPOUND	UNIT DESCRIPTOR	Cmax
CC1=C2C[C@H]3[C@@H](CC[C@@H]4C[C@H](NS(C)(=O)=O)CC[C@@]43C)[C@@H]2CC[C@@]2(C1)O[C@@H]1C[C@H](C)CN[C@H]1[C@H]2C [patidegib]	ng/mL	3.93

---

assay: Toxicokinetics of patidegib and metabolite IPI-230 in plasma after twice daily dermal application for 13 weeks; format: in vivo, Gottingen Minipig; conditions: male, Gottingen, minipig, plasma, topical or ocular, 80 mg/kg/day, Gottingen Minipig plasma, Day 1, Group 4, 80 mg/kg/day dermal twice daily, sex M
MEASURE NAME: Cmax (ng/mL)

>>> df
                         chemical_structure  reported
0  CC1=C2C[C@H]3[C@@H](CC[C@@H]4C[C@H](NS(C)(=O)=O)CC[C@@]43C)[C@@H]2CC[C@@]2(C1)O[C@@H]1C[C@H](C)CN[C@H]1[C@H]2C      3.84

---

Assay: Toxicokinetics of patidegib and metabolite IPI-230 in plasma after twice daily dermal application for 13 weeks
Assay type: in vivo, Gottingen Minipig
Details: both sexes, Gottingen, minipig, plasma, topical or ocular, 40 mg/kg/day, Gottingen Minipig plasma, Day 90, Group 3, 40 mg/kg/day dermal twice daily, sexes combined MF; read-out: Mean Patidegib AUC0-24
Description: A study was conducted to evaluate the toxicokinetics of patidegib when administered twice daily via dermal application for 13 weeks. As described in Example 11, the formulation identified herein as SS14 was prepared, with patidegib concentrations of 2% and 4%. […] The formulation identified herein as SS14 was prepared, with 2% patidegib and with 4% patidegib. […] Only the 2-hour samples from the untreated and placebo groups were analyzed. […]
MEASURE NAME: AUC(0-t) (ng·h/mL)

                         chemical_structure  unit_descriptor  reported
0  CC1=C2C[C@H]3[C@@H](CC[C@@H]4C[C@H](NS(C)(=O)=O)CC[C@@]43C)[C@@H]2CC[C@@]2(C1)O[C@@H]1C[C@H](C)CN[C@H]1[C@H]2C          ng·h/mL       329
